Before we begin, note that these pIC50 values for Poly [ADP-ribose] polymerase 2 (Homo sapiens) originate from several publications.
pIC50: −log10 of the molar value.
MEASURED ATTRIBUTE: pIC50

1. COc1ccc(C(=O)Nc2ccc(C(=O)N(c3ccncn3)c3ccccc3Cl)cc2)cc1 ... < 4.00
2. NC(=O)c1ccc(OCC2CCCCC2)cc1OCc1ccccn1 ... < 4.00
3. O=C(CCc1c(Cl)cccc1Cl)Nc1nnc2n1CCS2 ... < 4.72
4. NC(=O)c1ccc(OCC2CCCCC2)cc1F ... < 4.00
5. COc1cccc2c(=O)[nH]c(-c3ccc(C)cc3)cc12 ... < 5.00
